Assay: activity coefficient (dimensionless); of the first substance listed, at infinite dilution; xn = mol fraction of the nth substance listed
Conditions: 433.15 K; 101 kPa; Liquid; Chromatography; x1 = 0
metric_name: activity coefficient

Some solved cases for reference:
Request: Requested read-out: activity coefficient. Entry: CC(C)C(C)(C)C [2,2,3-trimethylbutane] + CCCCCCCCCCCCCCCCCCC(CCCCCCCCCCCCCCCCCC)CCCCC(CCCCCCCCCCCCCCCCCC)CCCCCCCCCCCCCCCCCC
Response: 0.355

Request: And then C[C@@H]1CCCC[C@@H]1C [cis-1,2-dimethylcyclohexane] + CCCCCCCCCCCCCCCCCCC(CCCCCCCCCCCCCCCCCC)CCCCC(CCCCCCCCCCCCCCCCCC)CCCCCCCCCCCCCCCCCC , what is it?
Response: 0.285

Request: And then C=CCCCCCCCC [1-decene] + CCCCCCCCCCCCCCCCCCC(CCCCCCCCCCCCCCCCCC)CCCCC(CCCCCCCCCCCCCCCCCC)CCCCCCCCCCCCCCCCCC , what is it?
Response: 0.418

Request: And then C1CCCCCCCCC1 [cyclodecane] + CCCCCCCCCCCCCCCCCCC(CCCCCCCCCCCCCCCCCC)CCCCC(CCCCCCCCCCCCCCCCCC)CCCCCCCCCCCCCCCCCC , what is it?
Response: 0.288

Request: And then CCCCCCCCCCCC [dodecane] + CCCCCCCCCCCCCCCCCCC(CCCCCCCCCCCCCCCCCC)CCCCC(CCCCCCCCCCCCCCCCCC)CCCCCCCCCCCCCCCCCC , what is it?
Response: 0.462

Request: And then CC#CCCC [2-hexyne] + CCCCCCCCCCCCCCCCCCC(CCCCCCCCCCCCCCCCCC)CCCCC(CCCCCCCCCCCCCCCCCC)CCCCCCCCCCCCCCCCCC , what is it?
Response: 0.38

Request: And then C#CCCCCC [1-heptyne] + CCCCCCCCCCCCCCCCCCC(CCCCCCCCCCCCCCCCCC)CCCCC(CCCCCCCCCCCCCCCCCC)CCCCCCCCCCCCCCCCCC , what is it?
Response: 0.398

Request: And then C1C2CC3CC1CC(C2)C3 [adamantane] + CCCCCCCCCCCCCCCCCCC(CCCCCCCCCCCCCCCCCC)CCCCC(CCCCCCCCCCCCCCCCCC)CCCCCCCCCCCCCCCCCC , what is it?
Response: 0.343

Request: And then CCCCC [pentane] + CCCCCCCCCCCCCCCCCCC(CCCCCCCCCCCCCCCCCC)CCCCC(CCCCCCCCCCCCCCCCCC)CCCCCCCCCCCCCCCCCC , what is it?
Response: 0.349

Request: And then C=CCCCCCCCCC [1-undecene] + CCCCCCCCCCCCCCCCCCC(CCCCCCCCCCCCCCCCCC)CCCCC(CCCCCCCCCCCCCCCCCC)CCCCCCCCCCCCCCCCCC , what is it?
Response: 0.436

[A] C1CC[C@@H]2CCC[C@H]2C1 [trans-bicyclo[4.3.0]nonane] + CCCCCCCCCCCCCCCCCCC(CCCCCCCCCCCCCCCCCC)CCCCC(CCCCCCCCCCCCCCCCCC)CCCCCCCCCCCCCCCCCC
[B] C=CCCCCCCC [1-nonene] + CCCCCCCCCCCCCCCCCCC(CCCCCCCCCCCCCCCCCC)CCCCC(CCCCCCCCCCCCCCCCCC)CCCCCCCCCCCCCCCCCC
Request: Looking only at measured activity coefficient, which entry is lower, A or B ? Output the label that corresponds to your choice.
Response: A

---

Test: activity coefficient (dimensionless); of the first substance listed, at infinite dilution; xn = mol fraction of the nth substance listed
Details: 418.15 K; 101 kPa; Liquid; Chromatography; x1 = 0
metric_name: activity coefficient

Some solved cases for reference:
Request: Requested read-out: activity coefficient. Entry: CCCCC [pentane] + CCCCCCCCCCCCCCCCCCC(CCCCCCCCCCCCCCCCCC)CCCCC(CCCCCCCCCCCCCCCCCC)CCCCCCCCCCCCCCCCCC
Response: 0.345

Request: And then C1C2CC3CC1CC(C2)C3 [adamantane] + CCCCCCCCCCCCCCCCCCC(CCCCCCCCCCCCCCCCCC)CCCCC(CCCCCCCCCCCCCCCCCC)CCCCCCCCCCCCCCCCCC , what is it?
Response: 0.342

Request: And then C#CCCCCCCCC [1-decyne] + CCCCCCCCCCCCCCCCCCC(CCCCCCCCCCCCCCCCCC)CCCCC(CCCCCCCCCCCCCCCCCC)CCCCCCCCCCCCCCCCCC , what is it?
Response: 0.446

Request: And then C#CCCCC [1-hexyne] + CCCCCCCCCCCCCCCCCCC(CCCCCCCCCCCCCCCCCC)CCCCC(CCCCCCCCCCCCCCCCCC)CCCCCCCCCCCCCCCCCC , what is it?
Response: 0.364

[I] C1CCCCCCC1 [cyclooctane] + CCCCCCCCCCCCCCCCCCC(CCCCCCCCCCCCCCCCCC)CCCCC(CCCCCCCCCCCCCCCCCC)CCCCCCCCCCCCCCCCCC
[II] CCCCCCCCCC [decane] + CCCCCCCCCCCCCCCCCCC(CCCCCCCCCCCCCCCCCC)CCCCC(CCCCCCCCCCCCCCCCCC)CCCCCCCCCCCCCCCCCC
Request: Looking only at measured activity coefficient, which entry is lower, I or II ? Output the label that corresponds to your choice.
Response: I

---

Assay: activity coefficient (dimensionless); of the first substance listed, at infinite dilution; xn = mol fraction of the nth substance listed
Conditions: 418.15 K; 101 kPa; Liquid; Chromatography; x1 = 0
metric_name: activity coefficient

Some solved cases for reference:
Request: Requested read-out: activity coefficient. Entry: C1=CCCC=C1 [1,3-cyclohexadiene] + CCCCCCCCCCCCCCCCCCC(CCCCCCCCCCCCCCCCCC)CCCCC(CCCCCCCCCCCCCCCCCC)CCCCCCCCCCCCCCCCCC
Response: 0.252

Request: And then CCCCCCc1ccccc1 [hexylbenzene] + CCCCCCCCCCCCCCCCCCC(CCCCCCCCCCCCCCCCCC)CCCCC(CCCCCCCCCCCCCCCCCC)CCCCCCCCCCCCCCCCCC , what is it?
Response: 0.404

Request: And then CCCC#CCCC [4-octyne] + CCCCCCCCCCCCCCCCCCC(CCCCCCCCCCCCCCCCCC)CCCCC(CCCCCCCCCCCCCCCCCC)CCCCCCCCCCCCCCCCCC , what is it?
Response: 0.421

[a] CC(C)CC(C)(C)C [2,2,4-trimethylpentane] + CCCCCCCCCCCCCCCCCCC(CCCCCCCCCCCCCCCCCC)CCCCC(CCCCCCCCCCCCCCCCCC)CCCCCCCCCCCCCCCCCC
[b] C1=CCC=CC1 [1,4-cyclohexadiene] + CCCCCCCCCCCCCCCCCCC(CCCCCCCCCCCCCCCCCC)CCCCC(CCCCCCCCCCCCCCCCCC)CCCCCCCCCCCCCCCCCC
Request: Looking only at measured activity coefficient, which entry is lower, a or b ? Output the label that corresponds to your choice.
Response: b

---

Assay: activity coefficient (dimensionless); of the first substance listed, at infinite dilution; xn = mol fraction of the nth substance listed
Conditions: 418.15 K; 101 kPa; Liquid; Chromatography; x1 = 0
metric_name: activity coefficient

Request: Requested read-out: activity coefficient. Entry: C=CCCCCCCC [1-nonene] + CCCCCCCCCCCCCCCCCCC(CCCCCCCCCCCCCCCCCC)CCCCC(CCCCCCCCCCCCCCCCCC)CCCCCCCCCCCCCCCCCC
Response: 0.396

[A] CCCCCCCCC [nonane] + CCCCCCCCCCCCCCCCCCC(CCCCCCCCCCCCCCCCCC)CCCCC(CCCCCCCCCCCCCCCCCC)CCCCCCCCCCCCCCCCCC
[B] C[C@@H]1CCCC[C@@H]1C [cis-1,2-dimethylcyclohexane] + CCCCCCCCCCCCCCCCCCC(CCCCCCCCCCCCCCCCCC)CCCCC(CCCCCCCCCCCCCCCCCC)CCCCCCCCCCCCCCCCCC
Request: Looking only at measured activity coefficient, which entry is lower, A or B ? Output the label that corresponds to your choice.
Response: B
(B: 0.28, A: 0.404)

---

Experiment: activity coefficient (dimensionless); of the first substance listed, at infinite dilution; xn = mol fraction of the nth substance listed
Details: 433.15 K; 101 kPa; Liquid; Chromatography; x1 = 0
metric_name: activity coefficient

Request: Requested read-out: activity coefficient. Entry: CCCCCCCCCCCCCC [tetradecane] + CCCCCCCCCCCCCCCCCCC(CCCCCCCCCCCCCCCCCC)CCCCC(CCCCCCCCCCCCCCCCCC)CCCCCCCCCCCCCCCCCC
Response: 0.495

Request: And then C1CC[C@H]2CCCC[C@H]2C1 [cis-decahydronaphthalene] + CCCCCCCCCCCCCCCCCCC(CCCCCCCCCCCCCCCCCC)CCCCC(CCCCCCCCCCCCCCCCCC)CCCCCCCCCCCCCCCCCC , what is it?
Response: 0.279

Request: And then C[C@H]1CC[C@H](C)CC1 [trans-1,4-dimethylcyclohexane] + CCCCCCCCCCCCCCCCCCC(CCCCCCCCCCCCCCCCCC)CCCCC(CCCCCCCCCCCCCCCCCC)CCCCCCCCCCCCCCCCCC , what is it?
Response: 0.299

Request: And then CCCCCCCC [octane] + CCCCCCCCCCCCCCCCCCC(CCCCCCCCCCCCCCCCCC)CCCCC(CCCCCCCCCCCCCCCCCC)CCCCCCCCCCCCCCCCCC , what is it?
Response: 0.386

[1] CCCC#CCCC [4-octyne] + CCCCCCCCCCCCCCCCCCC(CCCCCCCCCCCCCCCCCC)CCCCC(CCCCCCCCCCCCCCCCCC)CCCCCCCCCCCCCCCCCC
[2] C1CCCCC1 [cyclohexane] + CCCCCCCCCCCCCCCCCCC(CCCCCCCCCCCCCCCCCC)CCCCC(CCCCCCCCCCCCCCCCCC)CCCCCCCCCCCCCCCCCC
Request: activity coefficient comparison. Which is larger, 1 or 2 ? Output the label that corresponds to your choice.
Response: 1
(1: 0.416, 2: 0.247)

These entries and their values trace back to the NIST ThermoML archive (doi:10.1016/j.fluid.2006.07.015).
